Recorded EMax, OVCAR 5 cells (cAMP) values for a group of binders are listed next.
assayedTarget: T1, RXFP1 receptor (UniProt Q9HBX9 1-757, limits assumed)
T1 sequence (looked up): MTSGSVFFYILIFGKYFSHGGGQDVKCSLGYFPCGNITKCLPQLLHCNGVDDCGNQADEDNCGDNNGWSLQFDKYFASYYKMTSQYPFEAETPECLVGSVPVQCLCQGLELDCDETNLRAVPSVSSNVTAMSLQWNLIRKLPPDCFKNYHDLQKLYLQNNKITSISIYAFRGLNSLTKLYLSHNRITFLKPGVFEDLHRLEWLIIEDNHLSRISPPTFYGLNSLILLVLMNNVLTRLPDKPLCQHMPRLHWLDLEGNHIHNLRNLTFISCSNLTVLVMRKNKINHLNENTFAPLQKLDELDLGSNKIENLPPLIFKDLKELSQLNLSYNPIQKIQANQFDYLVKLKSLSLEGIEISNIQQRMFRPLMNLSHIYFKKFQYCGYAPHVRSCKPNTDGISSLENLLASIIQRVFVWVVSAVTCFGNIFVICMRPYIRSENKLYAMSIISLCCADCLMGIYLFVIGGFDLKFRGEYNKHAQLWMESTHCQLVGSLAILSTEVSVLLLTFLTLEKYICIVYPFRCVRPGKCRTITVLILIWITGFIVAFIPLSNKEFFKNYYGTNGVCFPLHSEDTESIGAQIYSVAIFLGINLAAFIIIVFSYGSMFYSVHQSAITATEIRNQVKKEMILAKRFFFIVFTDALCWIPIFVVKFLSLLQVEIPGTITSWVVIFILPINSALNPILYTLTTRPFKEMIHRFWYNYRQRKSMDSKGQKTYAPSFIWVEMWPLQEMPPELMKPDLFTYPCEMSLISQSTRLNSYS
protocol: cell-based or functional assay
*1 amine or outer side, *2 acyl side, *3 side chain or, on linkers, in order; H or OH if unused. Primed or numbered codes have the meaning given here. Side-chain parts run from the residue outwards. [ ]: non-standard residue; d: D form. The star is where a group is joined. Lys(Me3) = C[N+](C)(C)CCCC[C@H](N)C(=O)O; γGlu = O=C(O)[C@H](CCC(=O)[*:2])N[*:1]; Arg(Me) = CNC(=N)NCCC[C@H](N)C(=O)O; Stearoyl = CCCCCCCCCCCCCCCCCC(=O)*; Palmitoyl = CCCCCCCCCCCCCCCC(=O)*; Nle = CCCC[C@H](N)C(=O)O; PEG2′ = PEG2 spacer unit; PEG2″ = not defined here; Aib = CC(C)(N)C(=O)O

# binder, EMax, OVCAR 5 cells (cAMP)
data = [
    ("Ac-LEGREKVRAQI[Aib][Aib]EG[Nle]STWS[Aib]RKK(Ac)[PEG2′][PEG2′][PEG2′][PEG2′][γGlu][γGlu]K([γGlu-Palmitoyl])-NH2 [peptide of SEQ ID NO: 121]", "91%"),
    ("Ac-LEGREKVRAK(Ac)I[Aib][Aib]EGQSTWS[Aib]RKK(Ac)K([PEG2″-PEG2″-PEG2″-γGlu-γGlu-γGlu-Stearoyl])-NH2 [peptide of SEQ ID NO: 113]", "89%"),
    ("Ac-LEGREKVRAK(Ac)I[Aib][Aib]EG[Nle]STWS[Aib]R[Lys(Me3)]K(Ac)K([PEG2′-PEG2′-PEG2′-γGlu-γGlu-γGlu-Stearoyl])-NH2 [peptide of SEQ ID NO: 134]", "100%"),
    ("Ac-LEGREKVRAK(Ac)I[Aib][Aib]EG[Nle]STWS[Aib][Arg(Me)]KK(Ac)K([PEG2′-PEG2′-PEG2′-γGlu-γGlu-γGlu-Stearoyl])-NH2 [peptide of SEQ ID NO: 133]", "83%"),
]
